Assay: Plasma kinetics after single oral administration in SD rats (LC-MS/MS)
Type: in vivo, rat
Settings: male, SD, rat, single oral 10 mg/kg, plasma, n = 8, read-out: MRT(0-∞)
ASSAY READOUT: MRT inf

# input MRT inf lookup needed for CC1(C)CC(=O)C2=C(C1)NC1=C(C(=O)CC(C)(C)C1)C2c1ccc(OCc2ccc(C(=O)O)cc2)c(Br)c1 [ADD-16] , thanks.
# output 37.5 h

* * *

Experiment: Plasma kinetics after single oral administration in SD rats (LC-MS/MS)
Format: in vivo, rat
Details: male, SD, rat, plasma, po, 10 mg/kg, single oral 10 mg/kg, plasma, n = 8, read-out: Vz/F (apparent volume of distribution)
ASSAY READOUT: Vd/F

# input Vd/F lookup needed for CC1(C)CC(=O)C2=C(C1)NC1=C(C(=O)CC(C)(C)C1)C2c1ccc(OCc2ccc(C(=O)O)cc2)c(Br)c1 [ADD-16] , thanks.
# output ~0.36 L/kg

// data source = patent US20230124720A1
